- Tested on: HCT-116
- methodDescription: Antiproliferative activity against human HCT116 cells over expressing RSK2 after 48 hrs by MTT assay
- Assay type: functional, cell-based
- experimentalParameters: HCT-116, 48 h
readout: IC50

Kindly state the measured IC50 obtained for O=C1NC(=O)C(=NNc2ccc(O)cc2)C(=O)N1 with HCT-116.
> 100 µM

Same lookup for Cc1ccc2nc(-c3cc(N)cc(C)c3O)oc2c1 , please.
> 100 µM

Same lookup for Oc1ccc(NCn2nnc3ccccc32)cc1 , please.
56.2 µM

Same lookup for Cc1c(N)ccc2[nH]c(-c3ccc(N)cc3)nc12 , please.
30.2 µM

Same lookup for Cn1cc(C2=C(c3cn(CCCSC(=N)N)c4ccccc34)C(=O)NC2=O)c2ccccc21 [BISINDOLYLMALEIMIDE IX] , please.
0.84 µM

Same lookup for O=C(Nc1ccccc1O)c1cnns1 , please.
> 100 µM

###

Each entry below carries its measured log10 IC50, system: Ribosomal protein S6 kinase alpha-3 (Homo sapiens, UniProt P51812).
Sequence (P51812 whole entry): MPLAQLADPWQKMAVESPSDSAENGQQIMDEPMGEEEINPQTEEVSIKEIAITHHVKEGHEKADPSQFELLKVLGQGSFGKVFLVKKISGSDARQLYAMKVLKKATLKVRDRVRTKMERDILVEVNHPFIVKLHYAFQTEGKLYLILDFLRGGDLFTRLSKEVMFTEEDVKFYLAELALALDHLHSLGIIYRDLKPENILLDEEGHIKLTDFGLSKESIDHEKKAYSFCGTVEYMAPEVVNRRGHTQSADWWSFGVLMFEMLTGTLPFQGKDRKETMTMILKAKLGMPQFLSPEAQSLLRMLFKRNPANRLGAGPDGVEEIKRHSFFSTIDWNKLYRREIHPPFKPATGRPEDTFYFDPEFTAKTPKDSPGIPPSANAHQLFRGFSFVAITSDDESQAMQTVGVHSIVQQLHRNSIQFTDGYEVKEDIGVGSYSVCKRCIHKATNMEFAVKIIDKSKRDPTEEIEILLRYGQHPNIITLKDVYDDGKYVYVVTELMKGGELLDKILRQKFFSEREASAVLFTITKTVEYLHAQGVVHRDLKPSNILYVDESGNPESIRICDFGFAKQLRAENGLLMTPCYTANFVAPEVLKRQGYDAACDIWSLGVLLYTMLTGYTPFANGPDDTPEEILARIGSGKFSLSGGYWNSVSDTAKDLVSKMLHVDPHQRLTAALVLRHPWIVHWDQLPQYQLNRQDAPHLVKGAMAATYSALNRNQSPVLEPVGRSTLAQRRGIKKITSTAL
Could you please treat all values as log10 of IC50 in nM?

Please look up its log10 IC50: O=C1NC(=O)C(=NNc2ccc(O)cc2)C(=O)N1
3.20

Same lookup for Cc1cc(N)cc2[nH]c(-c3ccccc3)nc12 , please.
3.03

Same lookup for Clc1ccc2c(c1)SNC(c1ccccc1)=N2 , please.
3.46

Others:
Please look up its log10 IC50: Cc1c(O)ccc(/N=N/c2ccc(S(=O)(=O)O)cc2)c1C
4.18

Same lookup for Cc1ccc2nc(-c3cc(N)cc(C)c3O)oc2c1 , please.
3.14

Same lookup for O=c1[nH]c(=O)c2ncc(-c3ccc(O)cc3)nc2[nH]1 , please.
4.16

Same lookup for O=C(Nc1ccccc1O)c1cnns1 , please.
3.48

Same lookup for Cc1c(N)ccc2nc(-c3ccc(N)cc3)[nH]c12 , please.
2.51

Same lookup for O=C(NNc1ccc(C(F)(F)F)cn1)c1ccccc1Cl , please.
4.12

Same lookup for Cn1cc(C2=C(c3cn(CCCSC(=N)N)c4ccccc34)C(=O)NC2=O)c2ccccc21 [BISINDOLYLMALEIMIDE IX] , please.
1.00

###

Known IC50 of a selection of compounds
- System: MCF7
- methodDescription: Antiproliferative activity against human MCF7 cells over expressing RSK2 after 48 hrs by MTT assay
- Format: functional, cell-based
- experimentalParameters: MCF7, 48 h
Field: numeric (µM). Do not append units.

Please look up its IC50: O=C1NC(=O)C(=NNc2ccc(O)cc2)C(=O)N1
15.6

Same lookup for Cc1c(N)ccc2[nH]c(-c3ccc(N)cc3)nc12 , please.
25.5

Same lookup for Oc1ccc(NCn2nnc3ccccc32)cc1 , please.
18

Same lookup for Cn1cc(C2=C(c3cn(CCCSC(=N)N)c4ccccc34)C(=O)NC2=O)c2ccccc21 [BISINDOLYLMALEIMIDE IX] , please.
1.96
